Consider the following compounds; for each one, report its TGI.
# System: COLO 205 colon
# test_description: NCI tumour cell line growth inhibition, 48 h

Example compounds with recorded TGI:
[N-]=[N+]=Nc1c(C=O)c(=O)n(-c2ccccc2)c2ccccc12 :: 46.5 µM
Cc1cc2cn3c4ccc(O)cc4[nH]c(=O)c3c2cc1C :: 0.927 µM
CCOP(=O)(C/C=C/Cn1nc(Br)c(=O)[nH]c1=O)OCC :: > 100 µM

Give measured TGI for every item shown.
1. O=[N+]([O-])c1ccc(/C=N/Nc2nnc3c4ccccc4c4ncccc4c3n2)o1
2. O=C(O)Cc1ccc(Oc2nc3ccccc3nc2C(=O)O)cc1
3. C=C1c2[nH]c3ccccc3c2C2C(CC)C1CCN2C (configuration not stated)
4. CC1=C(C(=O)NCc2ccccc2)C(c2ccc([N+](=O)[O-])cc2)C(C(=O)NCc2ccccc2)=C(C)N1
5. CN(CC#N)C1CCCC[C@H]1O (some centres not stated)
6. CC(=O)N1c2ccccc2NC2=C(C(=O)N(Cc3ccccc3)C2(C)C)C1c1ccco1 (configuration not stated)
7. CC(=O)O[C@@H]1[C@@H](O)C2=C3[C@]4(C)[C@@H]1C(C)(C)C(=O)C[C@@H]4[C@]3(O)[C@H](OC(C)=O)[C@@]1(C[C@@H]1C)C2=O

OUT:
> 10 µM
> 100 µM
58.9 µM
83.5 µM
> 100 µM
> 25 µM
34.2 µM

Give measured TGI for every item shown.
1. COC(=O)C1c2c(c3ccccc3n2C(=O)OC)CCN2CCC1C(S(=O)(=O)c1ccccc1)C2=O (configuration not stated)
2. CN1CCN(c2ccc(Nc3nc(N)c(C(=O)c4ccc5c(c4)OCCO5)s3)cc2)CC1

OUT:
1. > 100 µM
2. 7.35 µM

Give measured TGI for every item shown.
1. O=C(Nc1nn(C(=O)c2ccc(Cl)cc2)c(=O)s1)c1ccc(Cl)cc1
2. Cc1ccc(NC(=O)C(=O)CC(=O)C2CCOC2=O)c(C)c1 (configuration not stated)
3. CCN(CC)CCCC(C)Nc1ccnc2ccc3nn(C)nc3c12 (configuration not stated)
4. OC[C@]1(n2nc3ccccc3n2)OC[C@@H]1c1ccccc1
5. COc1ccc(-c2nc(C(=O)c3ccccc3)n(CC(=O)c3ccccc3)c2-c2ccc(OC)cc2)cc1

OUT:
1: > 100 µM; 2: > 100 µM; 3: > 100 µM; 4: > 100 µM; 5: > 100 µM
